# Assay Comment: Chemical stability of the compound in MeOH/H2O assessed as half life by LC-MS/MS analysis
# Assay type: physicochemical
Metric: half-life (h)
Note: unit h is implicit; provide only the numeric part.

Entry under review: `COc1cc2sc3c(c2cc1OC)C(=O)N(CCC(=O)O)C3=O` . Reported half-life?
21

====

# Assay Comment: Half life in mouse at 10 mg/kg, po by LC-MS/MS analysis
# Assay type: ADME, organism-based
# Experimental Context: in vivo
# Lookup of reported half-life keyed by entry
Note: unit h is implicit; provide only the numeric part.

COc1cc2cc(C(=O)CCC(=O)O)sc2cc1OC	1.5

Entry under review: `CC[C@H](CNC(=O)c1[se]c2cc(OC)c(OC)cc2c1F)C(=O)O` . Reported half-life?
1.1
